B1: DnaJ homolog subfamily C member 2, residues 451 to 503; numbered along this chain, Q99543 (parent)
chain: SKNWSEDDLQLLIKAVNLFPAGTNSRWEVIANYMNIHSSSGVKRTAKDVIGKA

Variants of: B1
assay comment: abundance fitness (aPCA) (normalised: wild type 0, dead -1); higher = more abundant; growth selection in yeast, the domain comes from the species named
test settings: Homo sapiens
Quick rule for you: abundance fitness at -0.2 or higher means YES, lower means NO.

1) I50C = NO
2) V49S = NO
3) S25E = YES
4) K52N = NO
5) M34L = YES
6) D7L = YES
7) L18Q = NO
8) A31N = NO
9) L12T = NO
10) P20S = NO

For this variant, is measured abundance fitness -0.2 or higher? "A21Y"
NO
